biological target: Cathepsin K (Rattus norvegicus, UniProt O35186)
Sequence (O35186 whole entry): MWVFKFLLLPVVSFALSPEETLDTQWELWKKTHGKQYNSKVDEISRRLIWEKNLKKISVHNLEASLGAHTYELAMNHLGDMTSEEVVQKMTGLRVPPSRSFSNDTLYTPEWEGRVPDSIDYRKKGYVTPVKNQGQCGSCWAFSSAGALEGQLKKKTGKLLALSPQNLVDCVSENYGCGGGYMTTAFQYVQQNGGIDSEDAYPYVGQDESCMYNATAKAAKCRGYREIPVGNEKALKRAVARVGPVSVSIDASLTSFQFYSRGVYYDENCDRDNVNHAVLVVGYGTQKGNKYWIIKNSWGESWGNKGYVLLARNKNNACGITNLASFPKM
Observation Type: IC50 (nM)

// assay Cathepsin K (Rattus norvegicus, UniProt O35186), entry CCCC[C@H](NC(=O)OC(C(C)C)C(C)C)C(=O)C(=O)Nc1ccnn1C(C)C , IC50 value = 1000

Form field IC50 for item CCCC[C@H](NC(=O)OC(C(C)C)C(C)C)C(=O)C(=O)Nc1ccnn1-c1ccccn1 on Cathepsin K (Rattus norvegicus, UniProt O35186): 1200

I = CCCC[C@H](NC(=O)OC(C(C)C)C(C)C)C(=O)C(=O)Nc1[nH]ncc1C
II = CCCC[C@H](NC(=O)OC(C(C)C)C(C)C)C(=O)C(=O)Nc1ccnn1C
III = CCCC[C@H](NC(=O)OC(C(C)C)C(C)C)C(=O)C(=O)Nc1ccnn1C1CCC1
Data request: Hey, quick one: sort these by IC50, low to high? Note for the reader: the ranking is given by listing the labels in the order requested.
Data returned: I, III, II
(I: 5.5 nM, III: 1100 nM, II: 1700 nM)
